Provenance of the data: the RepoRT retention time repository (doi:10.1016/j.jchromb.2020.122105)

- assayRemarks: RP, Waters CORTECS T3, 100 × 2.1 mm, 2.7 µm, 0.3 mL/min, estimated dead time 0.73 min; A: water + 0.1% formic acid, pH 3; B: methanol + 0.1% formic acid, pH 3; gradient (min/%B) 0/0 1/0 6/5 30/100 35/100 35.1/0 40/0
- runConditions: stereoisomer not certain
valueType: LC retention time (min)
Numbers only, in min.

>>> endpointresult("Nc1nc2ncc(CNc3ccc(C(=O)NC(CCC(=O)O)C(=O)O)cc3)nc2c(=O)[nH]1 (stereo not drawn)")
12.2
>>> endpointresult("NC(Cc1cc(I)c(Oc2cc(I)c(O)c(I)c2)c(I)c1)C(=O)O (stereo not drawn)")
21.6
>>> endpointresult("CC(C)(CO)C(O)C(=O)NCCC(=O)O (stereo not drawn)")
7.94
>>> endpointresult("NC(Cc1ccc(Oc2cc(I)c(O)c(I)c2)c(I)c1)C(=O)O (stereo not drawn)")
20.2
>>> endpointresult("C=Cc1c(C)c2cc3[nH]c(cc4nc(cc5nc(cc1[nH]2)C(C)=C5CCC(=O)O)C(CCC(=O)O)=C4C)c(C)c3C=C")
29.7

Quick batch: LC retention time for everything below.
1. CSCC1OC(n2cnc3c(N)ncnc32)C(O)C1O (stereo not drawn)
2. CC(=O)N[C@@H](Cc1ccccc1)C(=O)O
3. Nc1ncnc2nc[nH]c12

Reply |
[10.1, 13.6, 0.9]

----------
- assayRemarks: RP, Waters CORTECS T3, 100 × 2.1 mm, 2.7 µm, 0.2 mL/min, estimated dead time 1.1 min; A: water + 0.045% formic acid + 0.11% ammonium hydroxide, pH 7; B: methanol; gradient (min/%B) 0/5 5/5 25/95 25.1/100 35/100 35.1/5 45/5
- runConditions: stereoisomer not certain
valueType: LC retention time (min)
Numbers only, in min.

Consider the following illustrative entries.
>>> endpointresult("NC(=O)Cc1c[nH]c2ccccc12 [INDOLE-3-ACETAMIDE]")
11.7
>>> endpointresult("Cc1cc2nc3c(=O)[nH]c(=O)nc-3n(CC(O)C(O)C(O)CO)c2cc1C (centres undefined) [RIBOFLAVIN]")
13.2
>>> endpointresult("CCCCCCCCC=CCCCCCCCC(=O)NC(COP(=O)([O-])OCC[N+](C)(C)C)C(O)C=CCCCCCCCCCCCCC (centres undefined) [SPHINGOMYELIN (d36:2)]")
28.7

Ask | What value of LC retention time has been recorded for this entry: CCCCCCCCCCCC(=O)OC(CC(=O)[O-])C[N+](C)(C)C (centres undefined) [LAUROYLCARNITINE]
Reply | 22.8

----------
- assayRemarks: HILIC, Merck SeQuant ZIC-HILIC, 150 × 2.1 mm, 5 µm, 0.75 mL/min, estimated dead time 0.44 min; A: water + 0.1% acetic acid + 10 mM ammonium acetate, pH 4; B: 5% water + 95% acetonitrile + 0.1% acetic acid + 10 mM ammonium acetate, pH 4; gradient (min/%B) 0/95 5/95 20/57 25/57 30/95 40/95
- runConditions: stereoisomer not certain
Kindly state LC retention time for each of the entries shown.
Give bare numbers, in min.

Consider the following illustrative entries.
>>> endpointresult("N[C@@H](Cc1ccc(O)c([N+](=O)[O-])c1)C(=O)O [3-NITRO-L-TYROSINE]")
10.6
>>> endpointresult("O=C(O)CCCC(=O)C(=O)O [2-OXOADIPATE]")
12.9
>>> endpointresult("Nc1nc2ncc(CNc3ccc(C(=O)NC(CCC(=O)O)C(=O)O)cc3)nc2c(=O)[nH]1 (stereo not drawn) [FOLIC ACID]")
14.4
>>> endpointresult("COc1cc(C=CC(=O)O)ccc1O [FERULATE]")
3.23
>>> endpointresult("Nc1ncnc2c1ncn2[C@@H]1O[C@H](CSCC[C@H]([NH3+])C(=O)[O-])[C@@H](O)[C@H]1O [S-(5'-ADENOSYL)-L-HOMOCYSTEINE]")
12.3

Quick batch: LC retention time for everything below.
1. O=c1[nH]c(=O)c2ncn(C3OC(CO)C(O)C3O)c2[nH]1 (stereo not drawn) [XANTHOSINE]
2. C=CC1=C(C)C(=Cc2[nH]c(Cc3[nH]c(C=C4NC(=O)C(C)=C4C=C)c(C)c3CCC(=O)O)c(CCC(=O)O)c2C)NC1=O [BILIRUBIN]
3. O=C(O)CCCCC1SCC2NC(=O)NC21 (stereo not drawn) [BIOTIN]

Reply |
11.6
1.32
8.19

----------
- assayRemarks: RP, Waters CORTECS T3, 100 × 2.1 mm, 2.7 µm, 0.3 mL/min, estimated dead time 0.73 min; A: water + 0.1% formic acid, pH 3; B: methanol + 0.1% formic acid, pH 3; gradient (min/%B) 0/5 5/5 25/95 25.1/100 35/100 35.1/5 45/5
- runConditions: stereoisomer not certain
Kindly state LC retention time for each of the entries shown.
Answers are plain numbers, in min.

Consider the following illustrative entries.
>>> endpointresult("CC1NCCc2cc(O)c(O)cc21 (stereo not given) [1-METHYL-6,7-DIHYDROXY-1,2,3,4-TETRAHYDROISOQUINOLINE]")
0.9
>>> endpointresult("O=c1[nH]c(=O)c2[nH]c(=O)[nH]c2[nH]1 [URATE]")
0.9
>>> endpointresult("N[C@@H](CCOC(=O)CCC(=O)O)C(=O)O")
0.9
>>> endpointresult("CCCCCCCCCCCC(=O)OC(CC(=O)[O-])C[N+](C)(C)C (stereo not given)")
20.6

Could you now consider this next compound?
Ask | What value of LC retention time has been recorded for this entry: CC12CCC(=O)C=C1CCC1C2C(O)CC2(C)C1CCC2(O)C(=O)CO (stereo not given)
Reply | 17.2

----------
- assayRemarks: RP, Waters CORTECS T3, 100 × 2.1 mm, 2.7 µm, 0.2 mL/min, estimated dead time 1.1 min; A: water + 0.1% formic acid, pH 3; B: methanol + 0.1% formic acid, pH 3; gradient (min/%B) 0/0 1/0 6/5 30/100 35/100 35.1/0 40/0
- runConditions: stereoisomer not certain
valueType: LC retention time (min)
Answers are plain numbers, in min.

Consider the following illustrative entries.
>>> endpointresult("O=C(O)c1cc(=O)c2cccc(O)c2[nH]1 [XANTHURENIC ACID]")
12
>>> endpointresult("O=C(O)c1ccc(=O)[nH]c1 [6-HYDROXYNICOTINATE]")
5.13
>>> endpointresult("N[C@@H](Cc1cc(I)c(Oc2ccc(O)cc2)c(I)c1)C(=O)O [3,5-DIIODO-L-THYRONINE]")
19.3
>>> endpointresult("O=CCc1c[nH]c2ccccc12 [INDOLE-3-ACETALDEHYDE]")
12.1
>>> endpointresult("CC(=O)OCC(=O)C1(O)CCC2C3CCC4=CC(=O)CCC4(C)C3C(O)CC21C (centres undefined) [CORTISOL 21-ACETATE]")
22.4

Quick batch: LC retention time for everything below.
1. N[C@@H](Cc1ccccc1)C(=O)O [L-PHENYLALANINE]
2. Nc1nc2ncc(CNc3ccc(C(=O)NC(CCC(=O)O)C(=O)O)cc3)nc2c(=O)[nH]1 (centres undefined) [FOLIC ACID]

Reply |
1: 15.3; 2: 13.2

Quick batch: LC retention time for everything below.
1. CNCCc1c[nH]c2ccccc12 [N-METHYLTRYPTAMINE]
2. COc1ccc2[nH]cc(CCNC(C)=O)c2c1 [MELATONIN]

Reply |
1. 11.2
2. 16.2

----------
- assayRemarks: RP, Waters CORTECS T3, 100 × 2.1 mm, 2.7 µm, 0.25 mL/min, estimated dead time 0.88 min; A: water + 0.1% formic acid, pH 3; B: methanol + 0.1% formic acid, pH 3; gradient (min/%B) 0/0 1/0 6/5 30/100 35/100 35.1/0 40/0
- runConditions: stereoisomer not certain
Kindly state log10(LC retention time) for each of the entries shown.
Would you kindly interpret these values as log10 of LC retention time expressed in min?

>>> endpointresult("Cn1c(=O)c2c(ncn2C)n(C)c1=O")
1.09
>>> endpointresult("O=c1cccc[nH]1 [2-HYDROXYPYRIDINE]")
0.51
>>> endpointresult("CC(=O)OCC(=O)C1(O)CCC2C3CCC4=CC(=O)CCC4(C)C3C(O)CC21C (centres undefined) [CORTISOL 21-ACETATE]")
1.33
>>> endpointresult("Nc1ccn(C2OC(CO)C3OP(=O)([O-])OC32)c(=O)n1 (centres undefined) [CYTIDINE 2',3'-CYCLIC MONOPHOSPHATE]")
0.04
>>> endpointresult("C=CC1=C(C)C(C=c2[nH]c(=Cc3[nH]c(C=C4NC(=O)C(C)=C4C=C)c(C)c3CCC(=O)O)c(CCC(=O)O)c2C)=NC1=O")
1.36
>>> endpointresult("Cn1cnc(=N)c2[nH]cnc21")
0.04

Quick batch: log10(LC retention time) for everything below.
1. Nc1ncnc2c1ncn2[C@@H]1O[C@H](CSCC[C@H]([NH3+])C(=O)[O-])[C@@H](O)[C@H]1O
2. NC(=O)[C@@H](N)Cc1c[nH]c2ccccc12 [L-TRYPTOPHANAMIDE]
3. NC(N)=NCCCC(=O)O [4-GUANIDINOBUTANOATE]

Reply |
[0.04, 0.92, 0.03]
